- method description: Phase I trial, plasma pharmacokinetics of oral ONC201
- settings: human, in vivo, 625 mg, AUC, Median, N=6 patients receiving 625 mg ONC201 every three weeks
attribute measured: AUC (ng·h/mL)
The response must be a number in ng·h/mL with no trailing unit.

Give the value of AUC reported for the following: Cc1ccccc1CN1C(=O)C2=C(CCN(Cc3ccccc3)C2)N2CCN=C12 25600

* * *

- method description: Phase I trial, plasma pharmacokinetics of oral ONC201
- settings: human, in vivo, 625 mg, t1/2, Geo. Mean, N=6 patients receiving 625 mg ONC201 every three weeks
attribute measured: half-life (h)
Lab book: enter the figure in h, no units written.

Return the recorded half-life value; entry: Cc1ccccc1CN1C(=O)C2=C(CCN(Cc3ccccc3)C2)N2CCN=C12 9.49

* * *

- method description: Phase I trial, plasma pharmacokinetics of oral ONC201
- settings: human, in vivo, po, 625 mg, AUC, oral ONC201, PK analysis
attribute measured: AUC (ng·h/mL)
Give a bare numeral; the unit ng·h/mL is implied.

Query AUC for Cc1ccccc1CN1C(=O)C2=C(CCN(Cc3ccccc3)C2)N2CCN=C12 25000

* * *

- method description: Phase I trial, plasma pharmacokinetics of oral ONC201
- settings: human, in vivo, 625 mg, Cmax, Mean, N=6 patients receiving 625 mg ONC201 every three weeks
attribute measured: Cmax (ng/mL)
Give your result in ng/mL as a bare value.

Find the measured Cmax of Cc1ccccc1CN1C(=O)C2=C(CCN(Cc3ccccc3)C2)N2CCN=C12 and report it. 3310

* * *

- method description: Phase I trial, plasma pharmacokinetics of oral ONC201
- settings: human, in vivo, 625 mg, Cmax, Geo. Mean, N=6 patients receiving 625 mg ONC201 every three weeks
attribute measured: Cmax (ng/mL)
Give the value, in units of ng/mL, as a plain number.

Annotate the compound Cc1ccccc1CN1C(=O)C2=C(CCN(Cc3ccccc3)C2)N2CCN=C12 [ONC201] with its measured Cmax. 2890

* * *

- method description: Phase I trial, plasma pharmacokinetics of oral ONC201
- settings: human, in vivo, 625 mg, Tmax, Mean, N=6 patients receiving 625 mg ONC201 every three weeks
attribute measured: Tmax (h)
Answer with a number only, understood to be in h.

Write down Tmax measured for item Cc1ccccc1CN1C(=O)C2=C(CCN(Cc3ccccc3)C2)N2CCN=C12 [ONC201] 1.79

* * *

- method description: Phase I trial, plasma pharmacokinetics of oral ONC201
- settings: human, in vivo, 625 mg, t1/2, Median, N=6 patients receiving 625 mg ONC201 every three weeks
attribute measured: half-life
Remember to quote the unit after the number.

Answer with reported half-life of Cc1ccccc1CN1C(=O)C2=C(CCN(Cc3ccccc3)C2)N2CCN=C12 [ONC201] 9.6 h

* * *

- method description: Phase I trial, plasma pharmacokinetics of oral ONC201
- settings: human, in vivo, 625 mg, Cmax, Median, N=6 patients receiving 625 mg ONC201 every three weeks
attribute measured: Cmax (ng/mL)
Provide only the numeric value, understood in ng/mL.

Please supply the value of reported Cmax for the item Cc1ccccc1CN1C(=O)C2=C(CCN(Cc3ccccc3)C2)N2CCN=C12 2720

* * *

- method description: Phase I trial, plasma pharmacokinetics of oral ONC201
- settings: human, in vivo, 625 mg, AUC, Mean, N=6 patients receiving 625 mg ONC201 every three weeks
attribute measured: AUC (ng·h/mL)
Answer in ng·h/mL, number only, no unit symbol.

Give the value of AUC reported for the following: Cc1ccccc1CN1C(=O)C2=C(CCN(Cc3ccccc3)C2)N2CCN=C12 26300

* * *

- method description: Phase I trial, plasma pharmacokinetics of oral ONC201
- settings: human, in vivo, 625 mg, Vz/F, Median, N=6 patients receiving 625 mg ONC201 every three weeks
attribute measured: Vd/F
Please append the unit to your numeric answer.

Provide Vd/F value for the following compound: Cc1ccccc1CN1C(=O)C2=C(CCN(Cc3ccccc3)C2)N2CCN=C12 404 L

* * *

- method description: Phase I trial, plasma pharmacokinetics of oral ONC201
- settings: human, in vivo, 625 mg, AUC, Geo. Mean, N=6 patients receiving 625 mg ONC201 every three weeks
attribute measured: AUC (ng·h/mL)
Give the number; ng·h/mL is assumed, so skip it.

Name the recorded AUC of the compound listed here: Cc1ccccc1CN1C(=O)C2=C(CCN(Cc3ccccc3)C2)N2CCN=C12 24600

* * *

- method description: Phase I trial, plasma pharmacokinetics of oral ONC201
- settings: human, in vivo, 625 mg, mean t1/2, top dose cohort (625 mg)
attribute measured: half-life (h)
Expressed in h, but write only the number.

Indicate its recorded half-life; the compound in question is Cc1ccccc1CN1C(=O)C2=C(CCN(Cc3ccccc3)C2)N2CCN=C12 [ONC201] 9.62

* * *

- method description: Phase I trial, plasma pharmacokinetics of oral ONC201
- settings: human, in vivo
attribute measured: concentration at 24 h (nM)
Field format: number, assumed nM, no unit text.

Return reported concentration at 24 h. Input compound: Cc1ccccc1CN1C(=O)C2=C(CCN(Cc3ccccc3)C2)N2CCN=C12 900

* * *

- method description: Phase I trial, plasma pharmacokinetics of oral ONC201
- settings: human, in vivo, 625 mg, Mean AUC, top dose cohort (625 mg)
attribute measured: AUC (ng·h/mL)
The answer is to be given in ng·h/mL; state only the numeric part.

Output measured AUC for this item: Cc1ccccc1CN1C(=O)C2=C(CCN(Cc3ccccc3)C2)N2CCN=C12 26300

* * *

- method description: Phase I trial, plasma pharmacokinetics of oral ONC201
- settings: human, in vivo, po, 625 mg, half-life, oral ONC201, PK analysis
attribute measured: half-life (h)
Give just the numeric value; h need not be written.

Output half-life of Cc1ccccc1CN1C(=O)C2=C(CCN(Cc3ccccc3)C2)N2CCN=C12 9.6

* * *

- method description: Phase I trial, plasma pharmacokinetics of oral ONC201
- settings: human, in vivo, 625 mg, mean Cmax, top dose cohort (625 mg), first dose
attribute measured: Cmax (ng/mL)
Entry rule: numbers only, all in ng/mL.

Consider the compound Cc1ccccc1CN1C(=O)C2=C(CCN(Cc3ccccc3)C2)N2CCN=C12 and give its recorded Cmax. 3310

* * *

- method description: Phase I trial, plasma pharmacokinetics of oral ONC201
- settings: human, in vivo, 625 mg, Tmax, Median, N=6 patients receiving 625 mg ONC201 every three weeks
attribute measured: Tmax (h)
Field: numeric (h). Do not append units.

Let me know recorded Tmax for Cc1ccccc1CN1C(=O)C2=C(CCN(Cc3ccccc3)C2)N2CCN=C12 [ONC201] , thanks. 1.91

* * *

- method description: Phase I trial, plasma pharmacokinetics of oral ONC201
- settings: human, in vivo, Cmax, plasma, as quoted for the CYP margin
attribute measured: Cmax (µM)
Numbers only; they are read as µM.

Input Cc1ccccc1CN1C(=O)C2=C(CCN(Cc3ccccc3)C2)N2CCN=C12 , output reported Cmax. 9
